- study_target: TGFBR1 (ALK5) (Homo sapiens, UniProt P36897)
- Sequence (P36897 34-503): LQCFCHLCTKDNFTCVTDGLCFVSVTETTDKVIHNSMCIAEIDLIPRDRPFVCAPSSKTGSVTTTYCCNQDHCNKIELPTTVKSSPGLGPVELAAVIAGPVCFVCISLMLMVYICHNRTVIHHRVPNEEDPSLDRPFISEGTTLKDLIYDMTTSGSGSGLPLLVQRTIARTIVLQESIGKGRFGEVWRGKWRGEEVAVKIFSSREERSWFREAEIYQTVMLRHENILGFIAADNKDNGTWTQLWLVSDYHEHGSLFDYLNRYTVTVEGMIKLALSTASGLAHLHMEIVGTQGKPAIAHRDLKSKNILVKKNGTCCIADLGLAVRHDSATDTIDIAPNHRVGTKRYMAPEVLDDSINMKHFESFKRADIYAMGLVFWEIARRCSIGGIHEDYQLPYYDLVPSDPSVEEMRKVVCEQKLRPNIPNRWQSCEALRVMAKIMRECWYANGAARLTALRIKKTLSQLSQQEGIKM
- assay_text: ALK5 kinase assay (LanthaScreen Terbium labeled TR-FRET)
- Assay type: biochemical
- measurement_setup: Table 4; read-out: ALK5 IC50
pIC50: −log10 of the molar value. Where a name gives a salt, the structure may show the parent alone.
measurement_label: pIC50

{"molecule": "CC(C)c1cnc(-c2ccc(F)cc2)nc1Nc1ccnc2[nH]cc(N3CCN[C@H](C)C3)c12 [Compound No. 9, hydrochloride]", "study_target": "TGFBR1 (ALK5) (Homo sapiens, UniProt P36897)", "measurement_label": "pIC50", "sign": "=", "val": 6.99}
{"molecule": "CC(C)c1cnc(-c2ccc(F)cc2)nc1Nc1cccc2[nH]cc(C(=O)C(N)=O)c12 [Compound No. 28, hydrochloride]", "study_target": "TGFBR1 (ALK5) (Homo sapiens, UniProt P36897)", "measurement_label": "pIC50", "sign": "<", "val": 5.30}
{"molecule": "CC(C)c1cnc(-c2ccc(F)cc2)nc1Nc1ccnc2[nH]cc(N3CCC(C(N)=O)CC3)c12", "study_target": "TGFBR1 (ALK5) (Homo sapiens, UniProt P36897)", "measurement_label": "pIC50", "sign": "=", "val": 5.93}
{"molecule": "CC(C)c1cnc(-c2ccc(F)cc2)nc1Nc1ccnc2[nH]cc(N3CCN[C@@H](C)C3)c12 [Compound No. 11, hydrochloride]", "study_target": "TGFBR1 (ALK5) (Homo sapiens, UniProt P36897)", "measurement_label": "pIC50", "sign": "=", "val": 6.83}
{"molecule": "CC(C)c1ccc(-c2ccc(F)cc2)nc1Nc1ccnc2[nH]cc(C(=O)C(N)=O)c12 [Compound No. 27, hydrochloride]", "study_target": "TGFBR1 (ALK5) (Homo sapiens, UniProt P36897)", "measurement_label": "pIC50", "sign": "<", "val": 5.30}
{"molecule": "CC(C)c1cnc(-c2ccc(F)cc2)nc1Nc1ccnc2[nH]cc(N3CCNC(=O)C3)c12 [Compound No. 10, formate]", "study_target": "TGFBR1 (ALK5) (Homo sapiens, UniProt P36897)", "measurement_label": "pIC50", "sign": "=", "val": 6.52}

---

- Test system: MIA PaCa-2
- assay_text: Cell viability assay (resazurin, 96 hr) in MIA PaCa-2
- Type: cell-based
- measurement_setup: Homo sapiens; MIA PaCa-2 pancreatic cell line, 96 hr exposure; read-out: MiaPaCa-2_Cell Viability_IC50
pIC50: −log10 of the molar value. Counter-ions that a name gives are not always drawn.
measurement_label: pIC50

{"compound": "CC(C)c1cnc(-c2ccc(F)cc2)nc1Nc1cccc2[nH]cc(C(=O)C(N)=O)c12 [Compound No. 28, hydrochloride]", "measurement_label": "pIC50", "sign": "<", "val": 4.52}
{"compound": "CC(C)c1cnc(-c2ccc(F)cc2)nc1Nc1ccnc2[nH]cc(N3CCNCC3)c12 [Compound No. 1, hydrochloride]", "measurement_label": "pIC50", "sign": "=", "val": 5.79}
{"compound": "CNC(=O)C(=O)c1c[nH]c2nccc(Nc3cc(-c4ccc(F)cc4)ncc3C(C)C)c12 [Compound No. 21, hydrochloride]", "measurement_label": "pIC50", "sign": "=", "val": 4.97}
{"compound": "CC(C)c1cnc(-c2ccc(F)cc2)nc1Nc1ccnc2[nH]cc(N3CCNC[C@@H]3C)c12 [Compound No. 7, hydrochloride]", "measurement_label": "pIC50", "sign": "=", "val": 5.61}
{"compound": "CC(C)c1cnc(-c2ccc(F)cc2)nc1Nc1ccnc2[nH]cc(N3CCN[C@H](C)C3)c12 [Compound No. 9, hydrochloride]", "measurement_label": "pIC50", "sign": "=", "val": 5.45}
{"compound": "CC(C)c1ccc(-c2ccc(F)cc2)nc1Nc1ccnc2[nH]cc(C(=O)C(N)=O)c12 [Compound No. 27, hydrochloride]", "measurement_label": "pIC50", "sign": "<", "val": 4.52}
{"compound": "CC(C)c1cnc(-c2ccc(F)cc2)nc1Nc1ccnc2[nH]cc(N3CCOCC3)c12 [Compound No. 5, hydrochloride]", "measurement_label": "pIC50", "sign": "<", "val": 4.52}
{"compound": "CC(C)c1cnc(-c2ccc(F)cc2)nc1Nc1ccnc2[nH]cc(C(=O)C(=O)N3CCN(C)CC3)c12 [Compound No. 24, hydrochloride]", "measurement_label": "pIC50", "sign": "=", "val": 6.11}
{"compound": "CC(C)c1cnc(-c2ccc(F)cc2)nc1Nc1ccnc2[nH]cc(N3CCNC[C@H]3C)c12 [Compound No. 8, hydrochloride]", "measurement_label": "pIC50", "sign": "<", "val": 4.52}
{"compound": "COc1ccc(-c2ncc(C(C)C)c(Nc3ccnc4[nH]cc(C(=O)C(N)=O)c34)n2)cc1 [Compound No. 25, hydrochloride]", "measurement_label": "pIC50", "sign": "<", "val": 4.52}
{"compound": "CC(C)c1cnc(-c2ccc(F)cc2)cc1Nc1ccnc2[nH]cc(C(=O)C(N)=O)c12 [Compound No. 19, hydrochloride]", "measurement_label": "pIC50", "sign": "=", "val": 4.81}
{"compound": "CCCCNC(=O)C(=O)c1c[nH]c2nccc(Nc3nc(-c4ccc(F)cc4)ncc3C(C)C)c12 [Compound No. 20, hydrochloride]", "measurement_label": "pIC50", "sign": "<", "val": 4.52}
{"compound": "CNC(=O)C(=O)c1c[nH]c2nccc(Nc3nc(-c4ccc(F)cc4)ncc3C(C)C)c12 [Compound No. 29, hydrochloride]", "measurement_label": "pIC50", "sign": "=", "val": 4.64}
{"compound": "CC(C)c1cnc(-c2ccc(F)cc2)nc1Nc1ccnc2[nH]cc(C(=O)C(=O)N(C)C)c12 [Compound No. 16]", "measurement_label": "pIC50", "sign": "=", "val": 4.99}

---

- study_target: TGFBR1 (ALK5) (Homo sapiens)
- assay_text: ALK5 kinase assay (LanthaScreen Terbium labeled TR-FRET)
- Format: biochemical
- measurement_setup: 100 nM concentration of compound; read-out: Enzyme Activity TGFBR1 (ALK5) % Inhibition at 100 nM
Counter-ions that a name gives are not always drawn.
measurement_label: inhibition at 0.1 µM (%)

{"compound": "CC(C)c1cnc(-c2ccc(F)cc2)nc1Nc1ccnc2[nH]cc(N3CCNCC3C)c12 (stereo not drawn) [Compound No. 4, hydrochloride]", "value_units": "%", "val": 94}
{"compound": "CC(C)c1cnc(-c2ccc(F)cc2)nc1Nc1ccnc2[nH]cc(N3CCCCC3)c12 [Compound No. 3, hydrochloride]", "value_units": "%", "val": 72}
{"compound": "CC(C)c1cnc(-c2ccc(F)cc2)nc1Nc1ccnc2[nH]cc(N3CCNCC3)c12 [Compound No. 1, hydrochloride]", "value_units": "%", "val": 99}
{"compound": "CC(C)c1cnc(-c2ccc(F)cc2)nc1Nc1ccnc2[nH]cc(-n3cncn3)c12 [Compound No. 6, hydrochloride]", "value_units": "%", "val": 97}
{"compound": "CC(C)c1cnc(-c2ccc(F)cc2)nc1Nc1ccnc2[nH]cc(N3CCOCC3)c12 [Compound No. 5, hydrochloride]", "value_units": "%", "val": 88}
{"compound": "CC(C)c1cnc(-c2ccc(F)cc2)nc1Nc1ccnc2[nH]cc(N3CCN(C)CC3)c12 [Compound No. 2, hydrochloride]", "value_units": "%", "val": 84}

---

- study_target: TGFBR1 (ALK5) (Homo sapiens, UniProt P36897)
- assay_text: ALK5 kinase assay (LanthaScreen Terbium labeled TR-FRET)
- Assay type: biochemical
- measurement_setup: Table 5; read-out: ALK5 IC50
pIC50: −log10 of the molar value. Structures can show the parent of a compound that is named as a salt.

{"compound": "CNC(=O)C(=O)c1c[nH]c2nccc(Nc3nc(-c4ccc(F)cc4)ncc3C(C)C)c12 [Compound No. 29, hydrochloride]", "study_target": "TGFBR1 (ALK5) (Homo sapiens, UniProt P36897)", "sign": "=", "pIC50": 5.56}
{"compound": "CCCCNC(=O)C(=O)c1c[nH]c2nccc(Nc3nc(-c4ccc(F)cc4)ncc3C(C)C)c12 [Compound No. 20, hydrochloride]", "study_target": "TGFBR1 (ALK5) (Homo sapiens, UniProt P36897)", "sign": "<", "pIC50": 5.30}
{"compound": "CC(C)c1cnc(-c2ccc(F)cc2)nc1Nc1ccnc2[nH]cc(C(=O)C(=O)N(C)C)c12", "study_target": "TGFBR1 (ALK5) (Homo sapiens, UniProt P36897)", "sign": "=", "pIC50": 5.72}
{"compound": "CC(C)c1cnc(-c2ccc(F)cc2)nc1Nc1ccnc2[nH]cc(N3CCOCC3C)c12 (stereo not shown) [Compound No. 14, hydrochloride]", "study_target": "TGFBR1 (ALK5) (Homo sapiens, UniProt P36897)", "sign": "=", "pIC50": 5.43}
{"compound": "CC(C)c1cnc(-c2ccc(F)cc2)nc1Nc1ccnc2[nH]cc(C(=O)C(=O)N3CCOCC3)c12 [Compound No. 22, hydrochloride]", "study_target": "TGFBR1 (ALK5) (Homo sapiens, UniProt P36897)", "sign": "=", "pIC50": 5.40}
{"compound": "CC(C)c1cnc(-c2ccc(F)cc2)nc1Nc1ccnc2[nH]cc(C(=O)C(=O)N3CCN(C)CC3)c12 [Compound No. 24, hydrochloride]", "study_target": "TGFBR1 (ALK5) (Homo sapiens, UniProt P36897)", "sign": "=", "pIC50": 5.82}
{"compound": "COc1ccc(-c2ncc(C(C)C)c(Nc3ccnc4[nH]cc(C(=O)C(N)=O)c34)n2)cc1 [Compound No. 25, hydrochloride]", "study_target": "TGFBR1 (ALK5) (Homo sapiens, UniProt P36897)", "sign": "=", "pIC50": 5.59}
{"compound": "CC(C)c1cnc(-c2ccc(F)cc2)nc1Nc1ccnc2[nH]cc(N3CCC(N)CC3)c12 [Compound No. 15, hydrochloride]", "study_target": "TGFBR1 (ALK5) (Homo sapiens, UniProt P36897)", "sign": "=", "pIC50": 6.61}
{"compound": "CC(C)c1cnc(-c2ccc(F)cc2)nc1Nc1ccnc2[nH]cc(C3(O)CCNCC3)c12 [Compound No. 13, hydrochloride]", "study_target": "TGFBR1 (ALK5) (Homo sapiens, UniProt P36897)", "sign": "=", "pIC50": 6.97}
{"compound": "CNC(=O)C(=O)c1c[nH]c2nccc(Nc3cc(-c4ccc(F)cc4)ncc3C(C)C)c12 [Compound No. 21, hydrochloride]", "study_target": "TGFBR1 (ALK5) (Homo sapiens, UniProt P36897)", "sign": "=", "pIC50": 6.24}
